The origin of these recorded values is ChEMBL document CHEMBL3862033.

# Target system: Cytochrome P450 2D6 (Homo sapiens, UniProt P10635)
# Sequence (P10635 whole entry): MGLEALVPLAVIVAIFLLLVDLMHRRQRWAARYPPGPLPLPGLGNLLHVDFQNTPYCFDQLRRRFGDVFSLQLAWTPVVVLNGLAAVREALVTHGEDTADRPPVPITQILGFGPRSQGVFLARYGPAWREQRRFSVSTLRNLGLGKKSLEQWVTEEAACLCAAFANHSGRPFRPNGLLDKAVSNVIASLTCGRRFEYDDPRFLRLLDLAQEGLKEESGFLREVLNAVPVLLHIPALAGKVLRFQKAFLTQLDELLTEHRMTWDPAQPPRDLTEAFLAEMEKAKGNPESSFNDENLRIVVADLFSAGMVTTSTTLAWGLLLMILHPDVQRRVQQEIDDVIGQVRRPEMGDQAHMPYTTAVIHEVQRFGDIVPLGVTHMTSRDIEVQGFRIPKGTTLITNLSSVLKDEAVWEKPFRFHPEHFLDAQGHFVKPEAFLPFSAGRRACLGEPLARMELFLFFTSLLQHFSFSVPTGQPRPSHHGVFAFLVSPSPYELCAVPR
pIC50: −log10 of the molar value.
Endpoint name: pIC50

Please give measured pIC50 of the following entry: CNC(=O)[C@@]12C[C@@H]1[C@@H](n1cnc3c(NC(C4CC4)C4CC4)nc(Cl)nc31)[C@H](O)[C@@H]2O < 4.52

====

# Target system: 5-hydroxytryptamine receptor 2C (Homo sapiens)
# Sequence (P28335 whole entry): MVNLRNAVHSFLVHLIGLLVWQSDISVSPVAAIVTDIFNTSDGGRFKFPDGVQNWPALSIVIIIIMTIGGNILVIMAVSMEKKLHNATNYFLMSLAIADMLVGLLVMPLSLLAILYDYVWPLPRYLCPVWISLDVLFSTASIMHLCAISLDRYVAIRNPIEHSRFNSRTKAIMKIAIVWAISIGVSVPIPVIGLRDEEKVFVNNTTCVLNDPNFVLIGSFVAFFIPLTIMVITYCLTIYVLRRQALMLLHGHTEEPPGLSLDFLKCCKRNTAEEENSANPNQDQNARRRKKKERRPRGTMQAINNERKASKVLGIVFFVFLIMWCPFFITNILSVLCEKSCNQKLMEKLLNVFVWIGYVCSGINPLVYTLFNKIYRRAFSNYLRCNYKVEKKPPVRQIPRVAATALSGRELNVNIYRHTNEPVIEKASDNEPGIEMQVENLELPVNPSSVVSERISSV
# Test method notes: Displacement of [3H]mesulergine from human 5-HT2CR expressed in Flp-In HEK cell membranes incubated for 90 mins under dark condition by microbeta scintillation counting method
# Set-up: species or system HEK293
pKi: −log10 of the molar value.
Label met when pKi is at or above 6; otherwise label not met.

Recorded results for 6 compounds are shown here.
CNC(=O)[C@@]12C[C@@H]1[C@@H](n1cnc3c(N(C)C)nc(Cl)nc31)[C@H](O)[C@@H]2O
not met
CC(=O)NCCCNC(=O)[C@@]12C[C@@H]1[C@@H](n1cnc3c(NC(C4CC4)C4CC4)nc(Cl)nc31)[C@H](O)[C@@H]2O
not met
CC[C@@H](Nc1nc(Cl)nc2c1ncn2[C@H]1[C@H](O)[C@H](O)[C@]2(CO)C[C@H]12)C1CC1
met
OC[C@@]12C[C@@H]1[C@@H](n1cnc3c(N[C@H](C4CCC4)C4CC4)nc(Cl)nc31)[C@H](O)[C@@H]2O
met
CC(=O)NCCNC(=O)[C@@]12C[C@@H]1[C@@H](n1cnc3c(NC(C4CC4)C4CC4)nc(Cl)nc31)[C@H](O)[C@@H]2O
not met
CNC(=O)[C@@]12C[C@@H]1[C@@H](n1cnc3c(N(C)C)nc(C#Cc4ccc(Cl)s4)nc31)[C@H](O)[C@@H]2O
not met

Read the next record carefully.
Kindly determine if pKi recorded for COC(=O)[C@@]12C[C@@H]1[C@@H](n1cnc3c(NC(C4CC4)C4CC4)nc(Cl)nc31)[C@H](O)[C@@H]2O is above or exactly 6. met
